FYI, the data here is from ChEMBL document CHEMBL3351396.

A short record of pIC50 observed with Peptidyl-prolyl cis-trans isomerase NIMA-interacting 1 (Homo sapiens, UniProt Q13526) follows.
Sequence (Q13526 whole entry): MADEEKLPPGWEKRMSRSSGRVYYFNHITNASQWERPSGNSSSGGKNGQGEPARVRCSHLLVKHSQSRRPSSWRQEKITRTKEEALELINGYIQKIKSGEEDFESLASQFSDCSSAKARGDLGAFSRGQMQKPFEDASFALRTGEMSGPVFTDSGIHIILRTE
Answers are plain numbers, as −log10 of the molar value.

CC(C)=CCC[C@H](C(=O)O)[C@@H]1CC[C@]2(C)C3=C(CC[C@@]12C)[C@@]1(C)CCC(=O)C(C)(C)[C@@H]1CC3 ... 4.88
CN(C)C(=O)CC[C@H](C(=O)OCc1ccccc1)[C@@H]1CC[C@]2(C)C3=C(CC[C@@]12C)[C@@]1(C)CCC(=O)C(C)(C)[C@@H]1CC3 ... 6.08
CC1(C)C(=O)CC[C@]2(C)C3=C(CC[C@@H]12)[C@@]1(C)CC[C@@H]([C@H](CCC(=O)O)C(=O)OCc2ccccc2)[C@]1(C)CC3=O ... 5.83

The record that follows has no pIC50 shown yet.
stdin: Name the recorded pIC50 of the molecule listed here: CN1CCN(C(=O)CC[C@H](C(=O)OCc2ccccc2)[C@@H]2CC[C@]3(C)C4=C(CC[C@@]23C)[C@@]2(C)CCC(=O)C(C)(C)[C@@H]2CC4)CC1
stdout: 4.50
